// values below are reported pIC50
- Target: KRAS G12V (Homo sapiens, UniProt P01116, G12V)
- Sequence (P01116 with tags, fused parts or gaps isoform P01116-2 G12V): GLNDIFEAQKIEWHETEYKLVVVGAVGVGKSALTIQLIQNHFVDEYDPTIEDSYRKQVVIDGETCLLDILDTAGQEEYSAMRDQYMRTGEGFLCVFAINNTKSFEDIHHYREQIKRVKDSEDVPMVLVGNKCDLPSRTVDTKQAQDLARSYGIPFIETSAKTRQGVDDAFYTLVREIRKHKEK
- Experiment Summary: SOS-catalyzed nucleotide exchange assay, KRAS G12V (Procedure A)
- Assay type: biochemical
- Setup Conditions: GNE
pIC50: −log10 of the molar value.

Answered cases to consult:
Entry under review: COC1(COc2nc(N3C[C@H]4CC[C@@H](C3)N4)c3c(n2)sc2c(-c4c(C(F)(F)F)c(C)cc5[nH]ncc45)nccc23)CC1 . Reported pIC50? < 4.95

Input Cc1cc2[nH]ncc2c(-c2nccc3c2sc2nc(OC[C@@]45CCCN4C[C@H](F)C5)nc(N4CC5COCC(C4)N5)c23)c1C(F)(F)F < 4.95

Next:
Entry under review: Cn1c2nc(OC[C@]3(CO)CC3(F)F)nc(N3C[C@H]4CC[C@@H](C3)N4)c2c2ccnc(-c3ccc(F)c4sc(N)c(C#N)c34)c21 . Reported pIC50? < 4.95
